Target: human ALK5 (kinase domain, ALK5 T204D) (Homo sapiens, UniProt P36897, T204D)
Construct: The kinase domain of human ALK5 (amino acids 200-503)
Assay: ALK5 kinase assay ([33P] phosphate incorporation into casein)
Settings: casein substrate, 1 μM unlabelled ATP

COMPOUND STRING: Cc1cccc(-c2nc(-c3cncc(-c4ccc(CN5CC[C@H](N(C)C)C5)cc4)c3)c3cc[nH]c3n2)n1
STUDY TARGET: human ALK5 (kinase domain, ALK5 T204D) (Homo sapiens, UniProt P36897, T204D)
IC50: 8 nM
--
COMPOUND STRING: Cc1cccc(-c2cc(-c3cncc4ccccc34)c3cc[nH]c3n2)n1
STUDY TARGET: human ALK5 (kinase domain, ALK5 T204D) (Homo sapiens, UniProt P36897, T204D)
IC50: < 70 nM
--
COMPOUND STRING: CNCc1cccc(-c2cncc(-c3cc(-c4cccc(C)n4)nc4[nH]ccc34)c2)c1
STUDY TARGET: human ALK5 (kinase domain, ALK5 T204D) (Homo sapiens, UniProt P36897, T204D)
IC50: < 32 nM

---

IC50: recorded values
Biological target: human ALK5 (kinase domain, ALK5 T204D) (Homo sapiens, UniProt P36897, T204D)
Construct: The kinase domain of human ALK5 (amino acids 200-503)
Experiment: ALK5 kinase assay ([33P] phosphate incorporation into casein)
Conditions: casein substrate, 1 μM unlabelled ATP
METRIC NAME: IC50 (nM)

COMPOUND: Cc1cccc(-c2nc(-c3cncc(-c4ccc(CNCCO)cc4)c3)c3cc[nH]c3n2)n1
METRIC NAME: IC50
TEST VALUE: 5.8
--
COMPOUND: Cc1cccc(-c2cc(-c3cncc(-c4cccc(CN)c4)c3)c3cc[nH]c3n2)n1
METRIC NAME: IC50
TEST VALUE: 8
--
COMPOUND: Cc1cccc(-c2nc(-c3cncc(-c4ccc(C5CNCCN5)cc4)c3)c3cc[nH]c3n2)n1 (stereo not drawn)
METRIC NAME: IC50
TEST VALUE: 10

---

Target: human ALK5 (kinase domain, ALK5 T204D) (Homo sapiens, UniProt P36897, T204D)
Construct: The kinase domain of human ALK5 (amino acids 200-503)
Assay: ALK5 kinase assay ([33P] phosphate incorporation into casein)
Settings: casein substrate, 1 μM unlabelled ATP
pIC50: −log10 of the molar value.

COMPOUND STRING: Cc1cccc(-c2nc(-c3cncc(-c4ccc(CN(C)C)cn4)c3)c3cc[nH]c3n2)n1
pIC50: 7.96

COMPOUND STRING: COC(=O)CN(C)Cc1cccc(-c2cncc(-c3cc(-c4cccc(C)n4)nc4[nH]ccc34)c2)c1
pIC50: 7.77

COMPOUND STRING: Cc1cccc(-c2cc(-c3cncc(-c4ccc([C@H](C)N)cc4)c3)c3cc[nH]c3n2)n1
pIC50: 7.77

---

Molecular target: human ALK5 (kinase domain, ALK5 T204D) (Homo sapiens, UniProt P36897, T204D)
Construct: The kinase domain of human ALK5 (amino acids 200-503)
Test: ALK5 kinase assay ([33P] phosphate incorporation into casein)
Details: casein substrate, 1 μM unlabelled ATP
pIC50: −log10 of the molar value.
pIC50: recorded values
METRIC NAME: pIC50

COMPOUND STRING: CNCc1ccc(-c2cncc(-c3cc(-c4cccc(C)n4)nc4[nH]ccc34)c2)cc1
METRIC NAME: pIC50
TEST VALUE: 7.77

COMPOUND STRING: Cc1cccc(-c2cc(-c3cncc(C#CCN4CCN(C)CC4)c3)c3cc[nH]c3n2)n1
METRIC NAME: pIC50
TEST VALUE: 7.80

COMPOUND STRING: Cc1cccc(-c2nc(-c3cncc4ccccc34)c3cc[nH]c3n2)n1
METRIC NAME: pIC50
TEST VALUE: 7.96

COMPOUND STRING: CN1CCN(C(=O)c2ccc(-c3cncc(-c4nc(-c5ccccn5)nc5[nH]ccc45)c3)cc2)CC1
METRIC NAME: pIC50
TEST VALUE: 7.77

---

IC50: recorded values
Target: human ALK5 (kinase domain, ALK5 T204D) (Homo sapiens, UniProt P36897, T204D)
Construct: The kinase domain of human ALK5 (amino acids 200-503)
Sequence (P36897 200-503 T204D): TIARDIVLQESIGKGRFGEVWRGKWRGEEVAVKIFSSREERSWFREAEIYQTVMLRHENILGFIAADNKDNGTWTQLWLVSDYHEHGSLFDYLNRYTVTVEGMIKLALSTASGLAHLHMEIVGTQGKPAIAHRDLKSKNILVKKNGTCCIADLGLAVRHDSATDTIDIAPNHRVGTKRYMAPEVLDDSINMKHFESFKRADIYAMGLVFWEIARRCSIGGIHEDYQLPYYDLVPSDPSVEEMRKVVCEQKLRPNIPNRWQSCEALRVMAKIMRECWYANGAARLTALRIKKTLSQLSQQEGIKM
Experiment: ALK5 kinase assay ([33P] phosphate incorporation into casein)
Settings: casein substrate, 1 μM unlabelled ATP

COMPOUND: Cc1cccc(-c2cc(-c3cncc(-c4ccc(C(C)(C)N5CCOCC5)cc4)c3)c3cc[nH]c3n2)n1 [Example 161]
IC50: 19 nM

COMPOUND: Cc1cccc(-c2cc(-c3cncc(-c4cccc(CN(C)C)c4)c3)c3cc[nH]c3n2)n1 [Example 66]
IC50: < 69 nM

COMPOUND: Cc1cccc(-c2nc(-c3cccnc3)c3cc[nH]c3n2)n1 [Example 2]
IC50: 380 nM

COMPOUND: Cc1cccc(-c2nc(-c3cncc(-c4cccc(CN(C)CC(=O)O)c4)c3)c3cc[nH]c3n2)n1 [Example 145]
IC50: 26 nM

COMPOUND: COc1cncc(-c2cc(-c3cccc(C)n3)nc3[nH]ccc23)c1 [Example 47]
IC50: 28 nM

COMPOUND: Cc1cccc(-c2nc(-c3cncc(-c4ccc(CN5CCOCC5)cc4)c3)c3cc[nH]c3n2)n1 [Example 69]
IC50: < 64 nM

COMPOUND: Cc1cccc(-c2cc(-c3cncc(C4=CCNCC4)c3)c3cc[nH]c3n2)n1 [Example 111]
IC50: 42 nM

COMPOUND: Cc1cccc(-c2nc(-c3cncc(-c4cncc(CN(C)C)c4)c3)c3cc[nH]c3n2)n1 [Example 75]
IC50: 310 nM

---

Biological target: human ALK5 (kinase domain, ALK5 T204D) (Homo sapiens, UniProt P36897, T204D)
Construct: The kinase domain of human ALK5 (amino acids 200-503)
Assay: ALK5 kinase assay ([33P] phosphate incorporation into casein)
Settings: casein substrate, 1 μM unlabelled ATP
pIC50: −log10 of the molar value.
METRIC NAME: pIC50

MOLECULE: Cc1cccc(-c2nc(-c3cncc(-c4ccc(CN5CCN(C(C)C)CC5)cc4)c3)c3cc[nH]c3n2)n1
TEST VALUE: 7.36
--
MOLECULE: Cc1cccc(-c2nc(-c3cncc(-c4ccc(C(C)N)cc4)c3)c3cc[nH]c3n2)n1 (stereo not drawn)
TEST VALUE: 7.77
--
MOLECULE: Cc1cccc(-c2nc(-c3cncc(C(=O)NCCCN4CCN(C)CC4)c3)c3cc[nH]c3n2)n1
TEST VALUE: 6.65
